# Test target: PK R510Q (Homo sapiens, UniProt P30613, R510Q)
# Sequence (P30613 whole entry R510Q): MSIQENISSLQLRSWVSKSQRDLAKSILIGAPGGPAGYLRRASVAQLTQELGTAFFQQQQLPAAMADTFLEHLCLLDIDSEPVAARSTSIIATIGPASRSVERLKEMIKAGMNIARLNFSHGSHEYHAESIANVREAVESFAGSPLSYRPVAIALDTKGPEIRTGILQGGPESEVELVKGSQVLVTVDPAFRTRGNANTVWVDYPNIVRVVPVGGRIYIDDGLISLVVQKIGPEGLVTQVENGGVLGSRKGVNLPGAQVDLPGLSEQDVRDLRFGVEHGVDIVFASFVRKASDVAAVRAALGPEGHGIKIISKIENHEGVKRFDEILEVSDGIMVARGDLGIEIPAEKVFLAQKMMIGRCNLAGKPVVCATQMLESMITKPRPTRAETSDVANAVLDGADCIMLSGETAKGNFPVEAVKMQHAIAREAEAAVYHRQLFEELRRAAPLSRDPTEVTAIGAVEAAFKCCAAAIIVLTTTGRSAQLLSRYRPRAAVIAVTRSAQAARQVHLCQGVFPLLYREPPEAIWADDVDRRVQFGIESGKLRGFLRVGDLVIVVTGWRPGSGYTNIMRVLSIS
# Protocol notes: PKR Mutant Assay (R510Q), LDH-coupled, absorbance 340 nm
# Assay type: biochemical
# Condition set: mutant PKR R510Q enzyme activation
# Method: PKR (WT or mutant) enzyme stock solution was diluted to prepare a 1.25× Reaction Mix (without ADP). 1 μL of test compound was first added to the wells followed by 40 μL of 1.25× Reaction Mix (without ADP) and incubated at room temperature (25° C.) for 60 min. The reaction was initiated with 10 μL ADP, bringing the final Reaction Mix to 1x, and the reaction progress was measured as changes in absorbance at 340 nm wavelength at room temperature. […]
Measure name: AC50

Example entries begin here.
Mol smiles: COc1cccc(Cn2ncc3c4cc(C(F)(F)F)ccc4n(C)c3c2=O)c1
Reported measurement: > 800 nM
--
Mol smiles: COc1cccc(Cn2ncc3c4oc(C)nc4n(C)c3c2=O)c1
Reported measurement: > 800 nM

Recorded result, Cn1c2ccc(S(=O)(=O)c3cc[nH]n3)cc2c2cnn(Cc3cccc(C(N)=O)c3)c(=O)c21 , AC50: < 300 nM

Recorded result, Cc1cn2c(s1)c(C)c1c(=O)n(Cc3cc[nH]n3)ncc12 , AC50: > 800 nM

Recorded result, COc1cccc(Cn2ncc3c(c(Br)n4cc(C)sc34)c2=O)c1 , AC50: < 300 nM

###

# Test target: PKR WT (Homo sapiens, UniProt P30613)
# Sequence (P30613 whole entry): as the sequence (P30613 whole entry R510Q) above, with Q510R counted along it
# Protocol notes: PKR enzyme assay (WT), LDH-coupled, absorbance 340 nm
# Format: biochemical
# Condition set: wild type PKR enzyme activation
Measure name: AC50

Mol smiles: Cc1c2c(=O)n(Cc3ccn(C)n3)ncc2n2cc(Cc3cc[nH]n3)sc12
AC50: < 300 nM
//
Mol smiles: COc1cccc(Cn2ncc3c4n[nH]cc4n(C)c3c2=O)c1
AC50: > 800 nM
//
Mol smiles: Cn1c2ccc(S(C)(=O)=O)cc2c2cnn(Cc3cccc(C(N)=O)c3)c(=O)c21
AC50: > 800 nM

Recorded result, Cn1cc(S(=O)(=O)c2ccc3c(c2)c2cnn(Cc4cccc(C(N)=O)c4)c(=O)c2n3C)cn1 , AC50: 301 to 800 nM

Recorded result, COC(=O)c1ccc2c(c1)c1cnn(Cc3cccc(OC)c3)c(=O)c1n2C , AC50: > 800 nM

Recorded result, COc1cccc(Cn2ncn3c(c(C)c4nc(C)sc43)c2=O)c1 , AC50: > 800 nM

Recorded result, Cn1c2ccc(S(=O)(=O)c3cc[nH]n3)cc2c2cnn(Cc3cccc(C(N)=O)c3)c(=O)c21 , AC50: < 300 nM

Recorded result, Cc1c2c(=O)n(Cc3ccc4[nH]ncc4c3)ncc2c2sc(Cc3ccccn3)cn12 , AC50: < 300 nM

Recorded result, Cc1c2c(=O)n(Cc3cccc(C#N)c3)ncc2c2sc(Cc3ncco3)cn12 , AC50: 301 to 800 nM

Recorded result, Cc1c2c(=O)n(Cc3ccccn3)ncc2c2sc(Cc3cscn3)cn12 , AC50: < 300 nM

Recorded result, Cn1c2cc(S(=O)(=O)c3cc[nH]n3)ccc2c2cnn(Cc3cccc(C(N)=O)c3)c(=O)c21 , AC50: 301 to 800 nM

Recorded result, COc1cccc(Cn2ncc3c(c(Br)n4cc(C)sc34)c2=O)c1 , AC50: < 300 nM

Recorded result, COc1cccc(Cn2ncc3c4cc(Br)ccc4n(C)c3c2=O)c1 , AC50: > 800 nM

Recorded result, CNC(=O)c1ccc2c3cnn(Cc4cccc(OC)c4)c(=O)c3n(C)c2c1 , AC50: > 800 nM

Recorded result, Cn1ccc(Cn2ncc3c4cc(Cc5cscn5)ncc4n(C)c3c2=O)n1 , AC50: < 300 nM

Recorded result, COc1cccc(Cn2ncc3c4cccc(Cc5ccccc5)c4n(C)c3c2=O)c1 , AC50: > 800 nM

Recorded result, Cn1c2cc(Cc3cccc4cn[nH]c34)sc2c2cnn(Cc3cscn3)c(=O)c21 , AC50: < 300 nM

Recorded result, COc1cccc(Cn2ncc3c4sc(Cc5ccccc5)cc4n(C)c3c2=O)c1 , AC50: < 300 nM

###

AC50 reference
# Test target: PKR K410E (Homo sapiens, UniProt P30613, K410E)
# Sequence (P30613 whole entry K410E): as the sequence (P30613 whole entry R510Q) above, with K410E, Q510R counted along it
# Protocol notes: PKR Mutant Assay (K410E), LDH-coupled, absorbance 340 nm
# Assay type: biochemical
# Condition set: mutant PKR K410E enzyme activation

Recorded result, COc1cccc(Cn2ncc3c4ccncc4n(C)c3c2=O)c1 [Cpd 64] , AC50: 301 to 800 nM

Recorded result, Cn1c2ccc([S+](C)[O-])cc2c2cnn(Cc3cccc(C(N)=O)c3)c(=O)c21 (centres unmarked) [Cpd 51] , AC50: > 800 nM

Recorded result, Cc1c2c(=O)n(Cc3cccc(C#N)c3)ncc2c2sc(Cc3ncco3)cn12 [Cpd 19] , AC50: < 300 nM

Recorded result, COc1cccc(Cn2ncc3c4cc(Cc5ccccc5)ccc4n(C)c3c2=O)c1 [Cpd 34] , AC50: > 800 nM

Recorded result, COc1cccc(Cn2ncc3c4ncccc4n(C)c3c2=O)c1 [Cpd 65] , AC50: > 800 nM

###

# Test target: PKM2 WT (Homo sapiens, UniProt P14618)
# Sequence (P14618 whole entry): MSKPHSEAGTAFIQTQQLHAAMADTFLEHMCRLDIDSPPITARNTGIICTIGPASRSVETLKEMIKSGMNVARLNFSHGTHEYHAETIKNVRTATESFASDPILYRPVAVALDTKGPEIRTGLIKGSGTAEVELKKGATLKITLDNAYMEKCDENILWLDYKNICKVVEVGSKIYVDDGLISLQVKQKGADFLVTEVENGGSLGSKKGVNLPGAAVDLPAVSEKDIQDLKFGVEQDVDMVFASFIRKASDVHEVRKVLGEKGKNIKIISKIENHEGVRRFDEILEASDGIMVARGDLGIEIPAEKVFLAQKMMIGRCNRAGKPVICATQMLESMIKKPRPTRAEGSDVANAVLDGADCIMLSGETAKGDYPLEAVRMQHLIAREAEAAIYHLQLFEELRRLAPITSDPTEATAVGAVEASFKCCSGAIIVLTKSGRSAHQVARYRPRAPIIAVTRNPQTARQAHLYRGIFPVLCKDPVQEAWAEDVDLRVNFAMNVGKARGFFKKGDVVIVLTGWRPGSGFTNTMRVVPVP
# Protocol notes: PKM2 Assay, LDH-coupled, absorbance 340 nm
# Type: biochemical
# Condition set: wild type PKM2 enzyme activation
AC50 reference

Compound: COc1cccc(Cc2ccc3c4sc(C)cc4n(C)c3c2)c1 [Cpd 2]
Test target: PKM2 WT (Homo sapiens, UniProt P14618)
Measure name: AC50
Reported measurement: > 800 nM
--
Compound: Cn1c2ccc([S+](C)[O-])cc2c2cnn(Cc3cccc(C(N)=O)c3)c(=O)c21 (centres unmarked) [Cpd 51]
Test target: PKM2 WT (Homo sapiens, UniProt P14618)
Measure name: AC50
Reported measurement: > 800 nM
--
Compound: COc1cccc(Cn2ncc3c4c(Br)cccc4n(C)c3c2=O)c1 [Cpd 32]
Test target: PKM2 WT (Homo sapiens, UniProt P14618)
Measure name: AC50
Reported measurement: > 800 nM
--
Compound: Cc1nc2c3cnn(Cc4ccccc4)c(=O)c3n(C)c2s1 [Cpd 26]
Test target: PKM2 WT (Homo sapiens, UniProt P14618)
Measure name: AC50
Reported measurement: > 800 nM
--
Compound: Cn1cc(Cc2ccc3c(c2)c2cnn(Cc4cccc(C(N)=O)c4)c(=O)c2n3C)cn1 [Cpd 35]
Test target: PKM2 WT (Homo sapiens, UniProt P14618)
Measure name: AC50
Reported measurement: 301 to 800 nM
--
Compound: COc1cccc(Cn2ncc3c4cc(Br)ccc4n(C)c3c2=O)c1 [Cpd 36]
Test target: PKM2 WT (Homo sapiens, UniProt P14618)
Measure name: AC50
Reported measurement: 301 to 800 nM
--
Compound: C=Cc1ccc2c3cnn(Cc4cccc(OC)c4)c(=O)c3n(C)c2c1 [Cpd 42]
Test target: PKM2 WT (Homo sapiens, UniProt P14618)
Measure name: AC50
Reported measurement: > 800 nM
--
Compound: COc1cccc(Cn2ncc3c4oc(C)nc4n(C)c3c2=O)c1 [Cpd 3]
Test target: PKM2 WT (Homo sapiens, UniProt P14618)
Measure name: AC50
Reported measurement: 301 to 800 nM
--
Compound: COc1cccc(Cn2ncc3c4cc(C#N)ccc4n(C)c3c2=O)c1 [Cpd 45]
Test target: PKM2 WT (Homo sapiens, UniProt P14618)
Measure name: AC50
Reported measurement: < 300 nM
--
Compound: CCc1ccc2c3cnn(Cc4cccc(OC)c4)c(=O)c3n(C)c2c1 [Cpd 43]
Test target: PKM2 WT (Homo sapiens, UniProt P14618)
Measure name: AC50
Reported measurement: > 800 nM

Recorded result, COc1cccc(Cn2ncc3c4ccc(Cc5ccccc5)cc4n(C)c3c2=O)c1 [Cpd 60] , AC50: 301 to 800 nM

Recorded result, COc1cccc(CN2Cc3c(n(C)c4cc(C)sc34)C2=O)c1 [Cpd 1] , AC50: > 800 nM

Recorded result, COc1cccc(Cn2ncc3c4n[nH]cc4n(C)c3c2=O)c1 [Cpd 29] , AC50: > 800 nM

Recorded result, Cn1c2ccc(S(C)(=O)=O)cc2c2cnn(Cc3cccc(C(N)=O)c3)c(=O)c21 [Cpd 52] , AC50: 301 to 800 nM

Recorded result, COc1cccc(Cn2ncn3c(c(C)c4nc(C)sc43)c2=O)c1 [Cpd 25] , AC50: > 800 nM

Recorded result, COc1cccc(Cn2ncc3c4nn(C)cc4n(C)c3c2=O)c1 [Cpd 30] , AC50: > 800 nM

Recorded result, CNC(=O)c1ccc2c(c1)c1cnn(Cc3cccc(OC)c3)c(=O)c1n2C [Cpd 38] , AC50: > 800 nM

Recorded result, COc1cccc(Cn2ncc3c4cc(C(F)(F)F)ccc4n(C)c3c2=O)c1 [Cpd 63] , AC50: > 800 nM

Recorded result, Cn1cc(Cc2ccc3c4cnn(Cc5cccc(C(N)=O)c5)c(=O)c4n(C)c3c2)cn1 [Cpd 62] , AC50: 301 to 800 nM

Recorded result, COc1cccc(Cn2ncc3c4cccnc4n(C)c3c2=O)c1 [Cpd 66] , AC50: 301 to 800 nM

Recorded result, COc1cccc(Cn2ncc3c4cc(Cc5ccccc5)ccc4n(C)c3c2=O)c1 [Cpd 34] , AC50: > 800 nM

Recorded result, COc1cccc(Cn2ncc3c4ncccc4n(C)c3c2=O)c1 [Cpd 65] , AC50: > 800 nM

Recorded result, C=Cc1ccc2c(c1)c1cnn(Cc3cccc(OC)c3)c(=O)c1n2C [Cpd 39] , AC50: > 800 nM

Recorded result, COc1cccc(Cn2ncc3c4cccc(Cc5ccccc5)c4n(C)c3c2=O)c1 [Cpd 59] , AC50: > 800 nM

Recorded result, COC(=O)c1ccc2c(c1)c1cnn(Cc3cccc(OC)c3)c(=O)c1n2C [Cpd 37] , AC50: > 800 nM

Recorded result, CNC(=O)c1ccc2c3cnn(Cc4cccc(OC)c4)c(=O)c3n(C)c2c1 [Cpd 41] , AC50: < 300 nM
